test system: U2OS; assay: Multiplex assay against U2OS; format: toxicity, cell-based; conditions: human, 48 h, 1 µM, compound concentration 1 uM, replicate 1
Non-standard residues stand in square brackets, D forms with d. Residues, ends and D or L forms follow the SMILES beside them.

COMPOUND	TARGET	Population Fragmented Nuclei (%)
COc1ccc2[nH]c(I)c(CCNC(C)=O)c2c1 [IODOMELATONIN]	U2OS	12
COc1cc2nc(N3CCN(C(=O)c4ccco4)CC3)nc(N)c2cc1OC.Cl [PRAZOSIN HYDROCHLORIDE]	U2OS	16
CC(C)C[C@@H]1NC(=O)[C@@H](C(C)C)NC(=O)[C@@H]2CCCN2C(=O)[C@@H](CC(=O)O)NC(=O)[C@@H](Cc2c[nH]c3ccccc23)NC1=O [BQ-123] (cyclo(L[dW][dD]P[dV]))	U2OS	14
Cc1cc(O)c(-c2ccc([C@@H](C)CN(C)C)cc2)c2c1[nH]c(=O)c1sccc12	U2OS	53
COc1cc2nc(N3CCN(C(=O)COc4c(OC)cccc4C(C)C)CC3)nc(N)c2cc1OC.Cl.Cl	U2OS	20
Cc1ccc(OCC(O)C(C)NC(C)C)c2c1CCC2.Cl (configuration not stated)	U2OS	14
Cl.Cl.OCCOCCN1CCN(C(c2ccccc2)c2ccc(Cl)cc2)CC1 (configuration not stated) [HYDROXYZINE HYDROCHLORIDE]	U2OS	24

// data source = ChEMBL document CHEMBL5058577
